# Test system: NCI-H522 lung
# measurement-description: NCI-60 one-dose screen, 48 h (100 = growth as untreated, 0 = no growth, -100 = all killed)
# measurement-setup: 10 µM unless noted
About 83,000 compounds went through this panel and 20% of them were active in at least one assay; those are over-represented in the sample as a whole. Activity calls are given as the source filed them. Rule for the calls: active = growth percent below 10; inactive = the rest.
attribute-measured: growth

[[record]]
compound = "CCCCOC(=O)c1cccc([N+](=O)[O-])c1"
attribute_measured = "growth"
value_observed = "92.7% (inactive)"

[[record]]
compound = "Cn1cc(-c2noc(-c3cn(C)c4ncccc34)n2)c2cc(Cl)ccc21"
attribute_measured = "growth"
value_observed = "7.71% (active)"

[[record]]
compound = "Cc1cc[n+](CCCCCCCCCC[n+]2ccc(C)cc2)cc1"
attribute_measured = "growth"
value_observed = "91.6% (inactive)"

[[record]]
compound = "CCOc1cc(/C=N\\NC(=O)N/N=C/c2ccc(O)c(OCC)c2)ccc1O"
attribute_measured = "growth"
value_observed = "-18.6% (active)"

[[record]]
compound = "CN(C)c1ccc(-c2ccc(-c3ccc(C(=N)N)cc3)s2)cc1"
attribute_measured = "growth"
value_observed = "-50.3% (active)"

[[record]]
compound = "CCN(CC)c1ccc2cc(NC(=O)OCCNC(=O)CCNC(=O)[C@H](CC(C)C)NC(=O)C(C)(C)NC(=O)C(C)(C)NC(=O)[C@H](CC(C)C)NC(=O)CCNC(=O)C(C)(C)NC(=O)[C@H](CC(C)C)NC(=O)CCNC(=O)[C@@](C)(CC)NC(=O)[C@H](C)NC(=O)CCNC(=O)C(C)(C)NC(=O)[C@H](C)NC(=O)[C@@H]3CCCN3C(=O)[C@@](C)(CC)NC(=O)[C@H](Cc3ccccc3)NC(=O)C3CCCN3C(=O)C(C)(C)NC(=O)C3CCCN3C(=O)C(C)(C)NC(C)=O)c(=O)oc2c1 (stereo partly drawn)"
attribute_measured = "growth"
value_observed = "-82.3% (active)"

[[record]]
compound = "C=C(C)[C@@H]1CC[C@]2(C(N)=O)CC[C@]3(C)[C@H](CC[C@@H]4[C@@]5(C)C/C(=C/c6cccnc6)C(=O)C(C)(C)[C@@H]5CC[C@]43C)[C@@H]12"
attribute_measured = "growth"
value_observed = "-16.8% [100 µM] (active)"

[[record]]
compound = "CC(C)=CC/C=C(/C)[C@H]1CC[C@]2(C)[C@@H]1CC[C@@H]1[C@@]3(C)CCC(=O)NC(C)(C)[C@@H]3CC[C@]12C"
attribute_measured = "growth"
value_observed = "-58% [100 µM] (active)"


###

Measured growth of individual entries
# System: SF-539 CNS
# measurement-description: NCI-60 one-dose screen, 48 h (100 = growth as untreated, 0 = no growth, -100 = all killed)
# measurement-setup: 10 µM unless noted
# Procedure: Cells are grown in 96 well plates and exposed to the test compound for 48 hours. Compounds are tested at a single concentration, which is 10^-5 M for most compounds. The reported endpoint is percent growth (GI% or GIPRCNT), where numbers from 0 - 100% represent growth inhibition, and numbers from -100% - 0 represent cell death. For example, a value of 40 represents 60% growth inhibition. A value of 0 means no net growth occurred over the course of the experiment. […]
This is part of a sample that, as a whole, favours compounds with a hit. Of some 83,000 tested, about 20% had one in any assay. Activity calls are given as the source filed them. The calls were made as follows: active = growth percent below 10; inactive = the rest.
attribute-measured: growth

[[record]]
compound = "CCCCCC1CCCCN1C(=O)OCCCC (stereo not given)"
value_observed = "92% (inactive)"

[[record]]
compound = "COc1c(C(C)=O)c(OCCCCOc2c(C(C)=O)c(OC)c3ccoc3c2OC)c(OC)c2occc12"
value_observed = "105% (inactive)"

[[record]]
compound = "Cn1cc(-c2noc(-c3cn(C)c4ncc(F)cc34)n2)c2cc(Cl)ccc21"
value_observed = "46% (inactive)"

[[record]]
compound = "Cc1ccccc1-n1nnc(C(=O)Nc2nc3ccc(F)cc3s2)c1C"
value_observed = "79.9% (inactive)"

[[record]]
compound = "CSc1nc(=S)c2nc(SC)n(-c3ccccc3)c2[nH]1"
value_observed = "103% (inactive)"

[[record]]
compound = "O=C(O)CSCc1nnc2n(Cc3ccccc3)c(=O)c3c4c(sc3n12)CCCC4"
value_observed = "101% (inactive)"

[[record]]
compound = "CCN(CC)CCCC(C)Nc1ccnc2cc(Cl)c(SCc3ccccc3)cc12 (stereo not given)"
value_observed = "-89.5% (active)"

[[record]]
compound = "C=C(C)[C@@H]1CC[C@]2(C)[C@H](CC=C3[C@@H]4[C@@H](C)[C@H](C)CC[C@]4(C(N)=O)CC[C@]32C)[C@@]1(C)CCC#N"
value_observed = "-63.1% [100 µM] (active)"

[[record]]
compound = "COc1ccc(N(c2nc(-c3ccc([N+](=O)[O-])cc3)cs2)C(C)C)cc1"
value_observed = "88.7% (inactive)"

[[record]]
compound = "Cc1ccc(-c2cc(-c3ccc(C)cc3)nc(N3CCN(CCNc4ccnc5cc(Cl)ccc45)CC3)n2)cc1"
value_observed = "7.85% (active)"

[[record]]
compound = "CC(C)C1=NOC(=O)C1=Cc1cn(-c2ccccc2)nc1-c1ccc(Br)cc1"
value_observed = "78.5% (inactive)"

[[record]]
compound = "COc1cc(Cl)cc(-c2nn(C(=O)NS(=O)(=O)c3ccccc3)cc2-c2ccncc2)c1"
value_observed = "48.2% (inactive)"

[[record]]
compound = "C[C@@H](NC(=O)[C@@H](CC(=O)N1CCC(N2CCCCC2)CC1)N1C(=O)[C@@H](N2C(=O)OC[C@@H]2c2ccccc2)[C@H]1/C=C/c1cccc(Cl)c1)c1ccccc1"
value_observed = "75.7% (inactive)"

[[record]]
compound = "CC1Cc2ccc(OCCN(C)C)cc2C1=O (stereo not given)"
value_observed = "99.5% (inactive)"

[[record]]
compound = "O=[N+]([O-])c1cccc(/C=C/c2ccc3ccccc3n2)c1"
value_observed = "78.1% (inactive)"

[[record]]
compound = "COc1ccc2nc3c(cc2c1)C(=O)CC(C(F)(F)F)C3 (stereo not given)"
value_observed = "22.6% (inactive)"

[[record]]
compound = "CCOC(=O)c1cc(C#N)n2ncc3ccccc3c12"
value_observed = "89% (inactive)"

[[record]]
compound = "Clc1ccccc1/C=N\\Nc1ccccn1"
value_observed = "98.5% (inactive)"

[[record]]
compound = "COc1ccc(C2CC(c3cc(OC)c(OC)c(OC)c3)=NN2C(C)=O)cc1OCC(=O)Nc1nc2ccc(C(F)(F)F)cc2s1 (stereo not given)"
value_observed = "-32.9% (active)"

[[record]]
compound = "CC1(C)NCCC[C@]2(C)[C@H]3C=CC4=C5C[C@](C)(CO)CC[C@]5(C)CC[C@@]4(C)[C@]3(C)CC[C@@H]12"
value_observed = "-93.3% [100 µM] (active)"


###

# Tested on: A549/ATCC NSCLC
# measurement-description: NCI-60 one-dose screen, 48 h
# measurement-setup: 10 µM unless noted
# Protocol: Growth inhibition of the A549/ATCC human Non-Small Cell Lung tumor cell line is measured as a screen for anti-cancer activity. Cells are grown in 96 well plates and exposed to the test compound for 48 hours. Compounds are tested at a single concentration, which is 10^-5 M for most compounds. The reported endpoint is percent growth (GI% or GIPRCNT), where numbers from 0 - 100% represent growth inhibition, and numbers from -100% - 0 represent cell death. […]
The panel holds about 83,000 compounds, 20% with a hit somewhere; the sample as a whole holds those more often. Active and inactive are the calls of the source. How the source made its calls: active means growth percent below 10; inactive means the rest.
Labels: class 1 = active, class 0 = inactive

[[record]]
compound = "COc1ccc(C2CC(c3ccc4ccccc4c3)=NN2c2nc(O)c(C3=c4cc(OC)ccc4=NC3=O)s2)cc1 (stereo not drawn)"
measurement_target = "A549/ATCC NSCLC"
cat = "class 1"

[[record]]
compound = "C=C(C)[C@@H]1CC[C@]2(C(N)=O)CC[C@]3(C)[C@H](CC[C@@H]4[C@@]5(C)C/C(=C/c6cccnc6)C(=O)C(C)(C)[C@@H]5CC[C@]43C)[C@@H]12"
measurement_target = "A549/ATCC NSCLC"
cat = "class 0"

[[record]]
compound = "CN(C)CCOc1ccc(/C(=C(/CCCl)c2ccccc2)c2ccccc2)cc1"
measurement_target = "A549/ATCC NSCLC"
cat = "class 0"

[[record]]
compound = "C#C[C@]1(O)CC[C@H]2[C@@H]3CC=C4c5nc(Nc6ncccn6)sc5CC[C@]4(C)[C@H]3CC[C@@]21C"
measurement_target = "A549/ATCC NSCLC"
cat = "class 0"

[[record]]
compound = "CCCCCN(CCCCC)CCCCCCCCN1CCCc2ccccc21"
measurement_target = "A549/ATCC NSCLC"
cat = "class 0"

[[record]]
compound = "COc1ccc(C2NC(=O)C(C#N)c3c2sc2c(F)cccc32)cc1 (stereo not drawn)"
measurement_target = "A549/ATCC NSCLC"
cat = "class 0"

[[record]]
compound = "CCN=Cc1c(O)c(O)c(C(C)C)c2cc(C)c(-c3c(C)cc4c(C(C)C)c(O)c(O)c(C=NCC)c4c3O)c(O)c12"
measurement_target = "A549/ATCC NSCLC"
cat = "class 0"

[[record]]
compound = "Cc1ccc2c(c1)/C(=N\\N=C/c1cn(C(C)C)c3ccccc13)C(=O)N2"
measurement_target = "A549/ATCC NSCLC"
cat = "class 0"

